- Test system: Saccharomyces cerevisiae;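 also: PSI is a weighted mean of sequencing reads over stability bins, variants kept only with over 10 reads, mCherry proximal and sfGFP distal, peptide attached via GGGS linker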
- ASSAY_OVERVIEW: protein stability index of tFT-peptide fusion (C-terminal peptide) (PSI (0-1 scale)); higher = more stable (slower turnover)
- RUN_PARAMETERS: genetic background: wild type; temperature: 30 C
ENDPOINT_LABEL: protein stability index
Keep it simple and answer with nothing but the number.

[[record]]
input_sequence = "VFVMRDGFLRKV"
observed_measurement = 0.341


Give its protein stability index value. Item: `VGDFFVLVGFVA`
0.382

Would you mind telling me what protein stability index value was observed for `VCSCLVLVFCCC` ?
0.237

Requested read-out: protein stability index. Entry: `IRSRGLLIRWLS`
0.0994

Dear colleague, I am looking for the recorded protein stability index of the following sequence: `IVCAVTSIFLFF`
0.249

Please give the measured protein stability index for this sequence: `APLLPPALALTC`
0.407

Reported protein stability index for `SLVVMGSLWLRI` : what is it?
0.314

Any idea what protein stability index was measured for `FLLLVFGLLIDS` ?
0.222
